test: Stability in pooled and cryopreserved human hepatocytes assessed as intrinsic clearance measured per 10^6 cells at 1 uM measured for 90 mins by LC-MS/MS analysis; type: ADME, cell-based, Hepatocyte; conditions: read-out: CLH
Where a SMILES comes first, the peptide text is derived from it. [ ]: non-standard residue; d: D form. ξ: configuration not given here. ξDip = NC(C(=O)O)C(c1ccccc1)c1ccccc1

[
  {
    "compound": "Cc1cc(=O)oc2cc(O)ccc12",
    "hepatocyte CLint at 1 µM": "127 µL/min/1e6 cells"
  },
  {
    "compound": "Cc1ncc2n1-c1ccc(Cl)cc1C(c1ccccc1F)=NC2",
    "hepatocyte CLint at 1 µM": "< 7 µL/min/1e6 cells"
  },
  {
    "compound": "C[C@]12CC[C@H]3[C@@H](CCC4=CC(=O)CC[C@@]43C)[C@@H]1CC[C@@H]2O",
    "hepatocyte CLint at 1 µM": "333 µL/min/1e6 cells"
  },
  {
    "compound": "NCCCC[C@H](NC(=O)C(NC(=O)[C@H](Cc1c[nH]c2ccccc12)NC(=O)[C@H](CCCCN)NC(=O)[C@H](CCCCN)NC(=O)[C@H](Cc1c[nH]c2ccccc12)NC(=O)[C@H](Cc1c[nH]c2ccccc12)NC(=O)[C@H](CCCCN)NC(=O)[C@@H](N)CCCCN)C(c1ccccc1)c1ccccc1)C(N)=O (some centres undefined) (H-KKWWKKW[ξDip]K-NH2)",
    "hepatocyte CLint at 1 µM": "22 µL/min/1e6 cells"
  }
]

###

// values below are reported pIC50
test: Cytotoxicity against human MINO cells assessed as inhibition of cell proliferation incubated for 4 hrs by MTS assay; format: functional, cell-based
pIC50: −log10 of the molar value. Where a SMILES comes first, the peptide text is derived from it. [ ]: non-standard residue; d: D form. ξ: configuration not given here. Bip = N[C@@H](Cc1ccc(-c2ccccc2)cc1)C(=O)O; ξBip = NC(Cc1ccc(-c2ccccc2)cc1)C(=O)O; ξDip = NC(C(=O)O)C(c1ccccc1)c1ccccc1

[
  {
    "compound": "N=C(N)NCCC[C@H](NC(=O)[C@H](Cc1c[nH]c2ccccc12)NC(=O)[C@H](Cc1c[nH]c2ccccc12)NC(=O)[C@H](CCCNC(=N)N)NC(=O)[C@H](CCCNC(=N)N)NC(=O)C(NC(=O)[C@H](Cc1c[nH]c2ccccc12)NC(=O)[C@H](CCCNC(=N)N)NC(=O)[C@@H](N)CCCNC(=N)N)C(c1ccccc1)c1ccccc1)C(N)=O (stereo not given in full) (H-RRW[ξDip]RRWWR-NH2)",
    "pIC50": 5.28
  },
  {
    "compound": "NCCCC[C@H](NC(=O)[C@H](Cc1c[nH]c2ccccc12)NC(=O)[C@H](Cc1c[nH]c2ccccc12)NC(=O)[C@H](CCCCN)NC(=O)[C@H](CCCCN)NC(=O)[C@H](Cc1c[nH]c2ccccc12)NC(=O)[C@H](Cc1ccc(-c2ccccc2)cc1)NC(=O)[C@H](CCCCN)NC(=O)[C@@H](N)CCCCN)C(N)=O (H-KK[Bip]WKKWWK-NH2)",
    "pIC50": 5.23
  },
  {
    "compound": "NCCCC[C@H](NC(=O)[C@H](Cc1c[nH]c2ccccc12)NC(=O)[C@H](CCCCN)NC(=O)[C@H](CCCCN)NC(=O)C(NC(=O)[C@H](Cc1c[nH]c2ccccc12)NC(=O)[C@H](CCCCN)NC(=O)[C@H](CCCCN)NC(=O)[C@@H](N)Cc1c[nH]c2ccccc12)C(c1ccccc1)c1ccccc1)C(N)=O (stereo not given in full) (H-WKKW[ξDip]KKWK-NH2)",
    "pIC50": 5.02
  },
  {
    "compound": "NCCCC[C@H](NC(=O)[C@H](Cc1c[nH]c2ccccc12)NC(=O)[C@H](Cc1c[nH]c2ccccc12)NC(=O)[C@H](CCCCN)NC(=O)[C@H](CCCCN)NC(=O)[C@H](Cc1c[nH]c2ccccc12)NC(=O)C(Cc1ccc(-c2ccccc2)cc1)NC(=O)[C@H](CCCCN)NC(=O)[C@@H](N)CCCCN)C(N)=O (stereo not given in full) (H-KK[ξBip]WKKWWK-NH2)",
    "pIC50": 5.08
  },
  {
    "compound": "NCCCC[C@H](NC(=O)C(NC(=O)[C@H](Cc1c[nH]c2ccccc12)NC(=O)[C@H](CCCCN)NC(=O)[C@H](CCCCN)NC(=O)[C@H](Cc1c[nH]c2ccccc12)NC(=O)[C@H](Cc1c[nH]c2ccccc12)NC(=O)[C@H](CCCCN)NC(=O)[C@@H](N)CCCCN)C(c1ccccc1)c1ccccc1)C(N)=O (stereo not given in full) (H-KKWWKKW[ξDip]K-NH2)",
    "pIC50": 5.43
  }
]

###

assay: Half life in human plasma measured by RP-HPLC analysis; assay type: ADME, cell-free
Where a SMILES comes first, the peptide text is derived from it. [ ]: non-standard residue; d: D form. ξ: configuration not given here. ξDip = NC(C(=O)O)C(c1ccccc1)c1ccccc1
property: half-life (min)

[
  {
    "compound": "NCCCC[C@H](NC(=O)C(NC(=O)[C@H](Cc1c[nH]c2ccccc12)NC(=O)[C@H](CCCCN)NC(=O)[C@H](CCCCN)NC(=O)[C@H](Cc1c[nH]c2ccccc12)NC(=O)[C@H](Cc1c[nH]c2ccccc12)NC(=O)[C@H](CCCCN)NC(=O)[C@@H](N)CCCCN)C(c1ccccc1)c1ccccc1)C(N)=O (stereo partly specified) (H-KKWWKKW[ξDip]K-NH2)",
    "unit of measurement": "min",
    "test result": 160
  }
]

###

test system: NAMALVA; test: Cytotoxicity against human NAMALVA cells assessed as inhibition of cell proliferation incubated for 4 hrs by MTS assay; assay type: functional, cell-based
Where a SMILES comes first, the peptide text is derived from it. [ ]: non-standard residue; d: D form. ξ: configuration not given here. Bip = N[C@@H](Cc1ccc(-c2ccccc2)cc1)C(=O)O; ξBip = NC(Cc1ccc(-c2ccccc2)cc1)C(=O)O; ξDip = NC(C(=O)O)C(c1ccccc1)c1ccccc1
// values below are reported IC50

[
  {
    "compound": "N=C(N)NCCC[C@H](NC(=O)[C@H](Cc1c[nH]c2ccccc12)NC(=O)[C@H](Cc1c[nH]c2ccccc12)NC(=O)[C@H](CCCNC(=N)N)NC(=O)[C@H](CCCNC(=N)N)NC(=O)C(NC(=O)[C@H](Cc1c[nH]c2ccccc12)NC(=O)[C@H](CCCNC(=N)N)NC(=O)[C@@H](N)CCCNC(=N)N)C(c1ccccc1)c1ccccc1)C(N)=O (stereo not given in full) (H-RRW[ξDip]RRWWR-NH2)",
    "target": "NAMALVA",
    "unit of measurement": "µM",
    "IC50": 5.3
  },
  {
    "compound": "NCCCC[C@H](NC(=O)[C@H](Cc1c[nH]c2ccccc12)NC(=O)[C@H](Cc1c[nH]c2ccccc12)NC(=O)[C@H](CCCCN)NC(=O)[C@H](CCCCN)NC(=O)[C@H](Cc1c[nH]c2ccccc12)NC(=O)C(Cc1ccc(-c2ccccc2)cc1)NC(=O)[C@H](CCCCN)NC(=O)[C@@H](N)CCCCN)C(N)=O (stereo not given in full) (H-KK[ξBip]WKKWWK-NH2)",
    "target": "NAMALVA",
    "unit of measurement": "µM",
    "IC50": 8.5
  },
  {
    "compound": "NCCCC[C@H](NC(=O)[C@H](Cc1c[nH]c2ccccc12)NC(=O)[C@H](Cc1c[nH]c2ccccc12)NC(=O)[C@H](CCCCN)NC(=O)[C@H](CCCCN)NC(=O)[C@H](Cc1c[nH]c2ccccc12)NC(=O)[C@H](Cc1ccc(-c2ccccc2)cc1)NC(=O)[C@H](CCCCN)NC(=O)[C@@H](N)CCCCN)C(N)=O (H-KK[Bip]WKKWWK-NH2)",
    "target": "NAMALVA",
    "unit of measurement": "µM",
    "IC50": 6.5
  },
  {
    "compound": "NCCCC[C@H](NC(=O)[C@H](Cc1c[nH]c2ccccc12)NC(=O)[C@H](CCCCN)NC(=O)[C@H](CCCCN)NC(=O)C(NC(=O)[C@H](Cc1c[nH]c2ccccc12)NC(=O)[C@H](CCCCN)NC(=O)[C@H](CCCCN)NC(=O)[C@@H](N)Cc1c[nH]c2ccccc12)C(c1ccccc1)c1ccccc1)C(N)=O (stereo not given in full) (H-WKKW[ξDip]KKWK-NH2)",
    "target": "NAMALVA",
    "unit of measurement": "µM",
    "IC50": 7.1
  },
  {
    "compound": "NCCCC[C@H](NC(=O)C(NC(=O)[C@H](Cc1c[nH]c2ccccc12)NC(=O)[C@H](CCCCN)NC(=O)[C@H](CCCCN)NC(=O)[C@H](Cc1c[nH]c2ccccc12)NC(=O)[C@H](Cc1c[nH]c2ccccc12)NC(=O)[C@H](CCCCN)NC(=O)[C@@H](N)CCCCN)C(c1ccccc1)c1ccccc1)C(N)=O (stereo not given in full) (H-KKWWKKW[ξDip]K-NH2)",
    "target": "NAMALVA",
    "unit of measurement": "µM",
    "IC50": 3.6
  }
]

This collection of values is drawn from ChEMBL document CHEMBL5257020.
